- assay remarks: in vitro
- Assay type: in vitro ADME
- conditions used: human, Caco-2
recorded metric: efflux ratio at 90 min

> print(dat)
                                   molecule         recorded.metric  observed.value
1  CCCCCOC(=O)Nc1ncnn2c([C@]3(C#N)O[C@H](COC(=O)CC(C)C)[C@@H](O)[C@H]3O)ccc12 [Compound 93]  efflux ratio at 90 min            0.54
2  CC(C)C(=O)OC[C@H]1O[C@@](C#N)(c2ccc3c(NC(=O)c4ccccc4)ncnn23)[C@H](O)[C@@H]1O [Compound 108]  efflux ratio at 90 min             1.4
3  N#C[C@@]1(c2ccc3c(N)ncnn23)O[C@H](COC(=O)C[C@H]2CC[C@H](N)CC2)[C@@H](O)[C@H]1O [Compound 266]  efflux ratio at 90 min               2
4  N#C[C@@]1(c2ccc3c(N)ncnn23)O[C@H](COC(=O)CC2CCS(=O)(=O)CC2)[C@@H](O)[C@H]1O [Compound 280]  efflux ratio at 90 min             2.4
5  CC(=O)N[C@H](C(=O)OC[C@H]1O[C@@](C#N)(c2ccc3c(N)ncnn23)[C@H](O)[C@@H]1OC(=O)CC1CCCCC1)C(C)(C)C [Compound 413]  efflux ratio at 90 min             3.2
6  CCCC(=O)Nc1ncnn2c([C@]3(C#N)O[C@H](COC(=O)CC4(N)CCCCC4)[C@@H](O)[C@H]3O)ccc12 [Compound 354]  efflux ratio at 90 min            0.29
